Measured values drawn from patent US8796268B2 for this set.

- Study target: Human PI3K delta (Homo sapiens)
- Construct: His (N); host or cells: SF9 insect cells (baculovirus)
- Sequence (O00329 whole entry, one chain of several): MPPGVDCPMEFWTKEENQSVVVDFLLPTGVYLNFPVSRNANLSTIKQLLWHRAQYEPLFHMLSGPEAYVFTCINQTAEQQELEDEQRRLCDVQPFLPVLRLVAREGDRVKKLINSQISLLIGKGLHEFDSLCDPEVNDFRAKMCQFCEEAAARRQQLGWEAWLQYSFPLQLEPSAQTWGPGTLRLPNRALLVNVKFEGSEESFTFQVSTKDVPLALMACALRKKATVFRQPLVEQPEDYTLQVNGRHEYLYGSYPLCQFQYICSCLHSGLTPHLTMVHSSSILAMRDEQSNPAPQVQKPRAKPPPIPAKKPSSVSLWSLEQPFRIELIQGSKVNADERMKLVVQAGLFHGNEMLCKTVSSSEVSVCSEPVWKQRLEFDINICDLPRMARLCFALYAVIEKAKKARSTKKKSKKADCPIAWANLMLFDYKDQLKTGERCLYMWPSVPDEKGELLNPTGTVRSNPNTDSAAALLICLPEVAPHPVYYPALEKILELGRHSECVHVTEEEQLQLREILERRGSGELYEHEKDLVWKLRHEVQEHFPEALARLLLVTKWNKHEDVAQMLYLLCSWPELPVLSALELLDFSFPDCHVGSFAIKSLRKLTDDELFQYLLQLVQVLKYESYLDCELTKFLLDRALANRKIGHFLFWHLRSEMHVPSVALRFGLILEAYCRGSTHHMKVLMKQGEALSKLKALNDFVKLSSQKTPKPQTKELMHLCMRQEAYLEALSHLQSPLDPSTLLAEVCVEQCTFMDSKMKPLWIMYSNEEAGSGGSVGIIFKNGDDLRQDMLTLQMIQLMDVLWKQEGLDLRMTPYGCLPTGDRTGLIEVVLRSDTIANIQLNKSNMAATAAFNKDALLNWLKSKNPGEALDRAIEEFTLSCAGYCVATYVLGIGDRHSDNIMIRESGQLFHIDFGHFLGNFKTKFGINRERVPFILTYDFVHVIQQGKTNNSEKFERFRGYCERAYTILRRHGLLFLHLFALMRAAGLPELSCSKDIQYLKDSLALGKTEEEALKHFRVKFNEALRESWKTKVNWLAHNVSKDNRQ
- Test: Human PI3K delta enzyme assay (HTRF)
- Assay type: biochemical
- Setup conditions: concentration not given; b1389 states 1.0 μM for PI3K δ and γ; read-out: p110 delta Percent Inhibition
Observable: inhibition at 1 µM (%)
Note: unit % is implicit; provide only the numeric part.

Compound	Study target	inhibition at 1 µM [%]
COC(=O)Nc1cc(-c2sc(C(=O)O)c(Cc3ccc4ccccc4c3)c2C#N)ccn1 [Compound 180]	Human PI3K delta (Homo sapiens)	102
O=C(O)c1cc(-c2sc(-c3ccncc3)nc2Cc2ccc(Cl)cc2)[nH]n1 [Compound 262]	Human PI3K delta (Homo sapiens)	12
CC(=O)Nc1cc(-c2cc(C(NCC(F)(F)F)c3ccc(Cl)cc3)c(-c3nnc[nH]3)s2)ccn1 (centres unmarked) [Compound 135]	Human PI3K delta (Homo sapiens)	99
OC(c1ccc2ncccc2c1)c1cc(-c2ccncc2)sc1-c1nnc[nH]1 (centres unmarked) [Compound 257]	Human PI3K delta (Homo sapiens)	68
CC(=O)Nc1cc(-c2cc(C(c3ccc(Cl)cc3)N3CC4(COC4)C3)c(-c3nnc[nH]3)s2)ccn1 (centres unmarked) [Compound 247]	Human PI3K delta (Homo sapiens)	104
OC(c1cc(-c2ccncc2)sc1-c1nnc[nH]1)c1cccc2nccnc12 (centres unmarked) [Compound 169]	Human PI3K delta (Homo sapiens)	65
OC(c1ccccc1F)c1cc(-c2ccncc2)sc1-c1nnc[nH]1 (centres unmarked) [Compound 155]	Human PI3K delta (Homo sapiens)	53
c1ccc2cc(Cc3cc(N4CCOCC4)sc3-c3nnn[nH]3)ccc2c1 [Compound 356]	Human PI3K delta (Homo sapiens)	72
OC(c1ccc(Br)o1)c1cc(-c2ccncc2)sc1-c1nnc[nH]1 (centres unmarked) [Compound 260]	Human PI3K delta (Homo sapiens)	37
OC(c1ccc2c(c1)OC(F)(F)O2)c1cc(-c2ccncc2)sc1-c1nnc[nH]1 (centres unmarked) [Compound 134]	Human PI3K delta (Homo sapiens)	44

**Query** Bench note: what inhibition at 1 µM did N#Cc1c(N2CCOC(CO)C2)sc(C(=O)O)c1Cc1ccc2ccccc2c1 (centres unmarked) [Compound 297] show?
**Result** 77

---

- Study target: Human PI3K gamma (Homo sapiens)
- Construct: His (N); host or cells: SF9 insect cells (baculovirus)
- Sequence (P48736 whole entry): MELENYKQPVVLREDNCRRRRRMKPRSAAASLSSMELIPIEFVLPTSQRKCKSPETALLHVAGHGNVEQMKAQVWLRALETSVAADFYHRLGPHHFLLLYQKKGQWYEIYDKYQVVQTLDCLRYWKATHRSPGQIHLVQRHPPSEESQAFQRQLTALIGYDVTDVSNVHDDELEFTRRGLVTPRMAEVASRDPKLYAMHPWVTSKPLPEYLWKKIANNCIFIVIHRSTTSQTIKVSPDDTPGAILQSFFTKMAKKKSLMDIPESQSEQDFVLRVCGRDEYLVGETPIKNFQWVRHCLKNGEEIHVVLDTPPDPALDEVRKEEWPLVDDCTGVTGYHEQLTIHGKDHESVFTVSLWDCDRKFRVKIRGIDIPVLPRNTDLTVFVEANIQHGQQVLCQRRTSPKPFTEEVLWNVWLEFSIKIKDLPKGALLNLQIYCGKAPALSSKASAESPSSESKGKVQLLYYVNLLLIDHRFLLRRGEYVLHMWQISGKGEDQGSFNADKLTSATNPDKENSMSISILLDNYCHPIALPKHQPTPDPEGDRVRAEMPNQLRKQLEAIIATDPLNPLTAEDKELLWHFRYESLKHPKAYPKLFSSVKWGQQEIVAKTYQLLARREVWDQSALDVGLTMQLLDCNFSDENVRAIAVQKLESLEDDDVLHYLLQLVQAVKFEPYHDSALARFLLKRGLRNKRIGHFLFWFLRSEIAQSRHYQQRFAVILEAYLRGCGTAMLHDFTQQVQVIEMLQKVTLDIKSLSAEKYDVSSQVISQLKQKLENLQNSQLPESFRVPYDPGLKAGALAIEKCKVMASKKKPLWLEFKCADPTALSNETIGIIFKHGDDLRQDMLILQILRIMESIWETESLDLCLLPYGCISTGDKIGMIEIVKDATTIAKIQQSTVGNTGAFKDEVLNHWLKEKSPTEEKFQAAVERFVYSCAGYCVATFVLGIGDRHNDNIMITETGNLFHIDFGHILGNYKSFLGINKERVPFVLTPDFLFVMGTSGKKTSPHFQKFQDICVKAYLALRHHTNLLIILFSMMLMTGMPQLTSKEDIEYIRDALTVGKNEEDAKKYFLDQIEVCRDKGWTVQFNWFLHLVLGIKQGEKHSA
- Test: Human PI3K gamma enzyme assay (HTRF)
- Assay type: biochemical
- Setup conditions: concentration not given; b1389 states 1.0 μM for PI3K δ and γ; read-out: p110 gamma Percent Inhibition
Catalogue of inhibition at 1 µM values

Compound	Assay value
CC(=O)Nc1cc(-c2sc(-c3nnc[nH]3)c([S+]([O-])c3ccc(Cl)cc3)c2C#N)ccn1 (stereo not drawn) [Compound 131]	5%

**Query** Bench note: what inhibition at 1 µM did CC(C)C(c1ccc(Cl)cc1)c1nc(N2CCOCC2)sc1C(=O)O (stereo not drawn) [Compound 304] show?
**Result** 7%

**Query** Bench note: what inhibition at 1 µM did CN[C@@H]1CCN(C(c2ccc(Cl)cc2)c2cc(-c3ccnc(NC(C)=O)c3)sc2-c2nnc[nH]2)C1 (stereo partly drawn) [Compound 209] show?
**Result** 34%

**Query** Bench note: what inhibition at 1 µM did Cc1n[nH]c(C)c1-c1sc(-c2ccncc2)nc1Cc1ccc(Cl)cc1 [Compound 183] show?
**Result** 3%

**Query** Bench note: what inhibition at 1 µM did COC(=O)NC(c1ccc2ccccc2c1)c1c(C(=O)O)sc(N2CCOCC2)c1C#N (stereo not drawn) [Compound 354] show?
**Result** 40%

**Query** Bench note: what inhibition at 1 µM did CNC1CN(C(c2ccc(Cl)cc2)c2cc(-c3ccnc(NC(C)=O)c3)sc2-c2nnc[nH]2)C1 (stereo not drawn) [Compound 170] show?
**Result** 26%

**Query** Bench note: what inhibition at 1 µM did OC(c1cc(F)ccc1F)c1cc(-c2ccncc2)sc1-c1nnc[nH]1 (stereo not drawn) [Compound 266] show?
**Result** 8%

**Query** Bench note: what inhibition at 1 µM did OC(c1cc2ccccc2cc1F)c1cc(-c2ccncc2)sc1-c1nnc[nH]1 (stereo not drawn) [Compound 136] show?
**Result** 67%

**Query** Bench note: what inhibition at 1 µM did O=C(O)c1sc(N2CCOCC2)nc1Cc1ccc2c(F)cccc2c1 [Compound 340] show?
**Result** 59%

**Query** Bench note: what inhibition at 1 µM did COc1cc(C(O)c2cc(-c3ccncc3)sc2-c2ncn[nH]2)c(F)cc1Cl (stereo not drawn) [Compound 186] show?
**Result** 65%

**Query** Bench note: what inhibition at 1 µM did Cn1c(Cc2nc(N3CCOCC3)sc2C(=O)O)cc2ccccc21 [Compound 302] show?
**Result** 15%

**Query** Bench note: what inhibition at 1 µM did CN[C@H]1CCN(C(c2ccc(Cl)cc2)c2cc(-c3ccnc(NC(C)=O)c3)sc2-c2nnc[nH]2)C1 (stereo partly drawn) [Compound 163] show?
**Result** 25%

**Query** Bench note: what inhibition at 1 µM did OC(c1ccc2ccccc2n1)c1cc(-c2ccncc2)sc1-c1nnc[nH]1 (stereo not drawn) [Compound 171] show?
**Result** 60%

**Query** Bench note: what inhibition at 1 µM did Nc1cc(-c2cc(C(c3ccc(Cl)cc3)N3CCNCC3)c(-c3nnc[nH]3)s2)ccn1 (stereo not drawn) [Compound 254] show?
**Result** 8%

**Query** Bench note: what inhibition at 1 µM did N#Cc1c(N2CCOCC2)sc(C(=O)O)c1C(CCO)c1ccc(Cl)c(Cl)c1 (stereo not drawn) [Compound 347] show?
**Result** 60%

---

- Study target: Human PI3K alpha (Homo sapiens)
- Construct: His (N); host or cells: SF9 insect cells (baculovirus)
- Sequence (P42336 whole entry, one chain of several): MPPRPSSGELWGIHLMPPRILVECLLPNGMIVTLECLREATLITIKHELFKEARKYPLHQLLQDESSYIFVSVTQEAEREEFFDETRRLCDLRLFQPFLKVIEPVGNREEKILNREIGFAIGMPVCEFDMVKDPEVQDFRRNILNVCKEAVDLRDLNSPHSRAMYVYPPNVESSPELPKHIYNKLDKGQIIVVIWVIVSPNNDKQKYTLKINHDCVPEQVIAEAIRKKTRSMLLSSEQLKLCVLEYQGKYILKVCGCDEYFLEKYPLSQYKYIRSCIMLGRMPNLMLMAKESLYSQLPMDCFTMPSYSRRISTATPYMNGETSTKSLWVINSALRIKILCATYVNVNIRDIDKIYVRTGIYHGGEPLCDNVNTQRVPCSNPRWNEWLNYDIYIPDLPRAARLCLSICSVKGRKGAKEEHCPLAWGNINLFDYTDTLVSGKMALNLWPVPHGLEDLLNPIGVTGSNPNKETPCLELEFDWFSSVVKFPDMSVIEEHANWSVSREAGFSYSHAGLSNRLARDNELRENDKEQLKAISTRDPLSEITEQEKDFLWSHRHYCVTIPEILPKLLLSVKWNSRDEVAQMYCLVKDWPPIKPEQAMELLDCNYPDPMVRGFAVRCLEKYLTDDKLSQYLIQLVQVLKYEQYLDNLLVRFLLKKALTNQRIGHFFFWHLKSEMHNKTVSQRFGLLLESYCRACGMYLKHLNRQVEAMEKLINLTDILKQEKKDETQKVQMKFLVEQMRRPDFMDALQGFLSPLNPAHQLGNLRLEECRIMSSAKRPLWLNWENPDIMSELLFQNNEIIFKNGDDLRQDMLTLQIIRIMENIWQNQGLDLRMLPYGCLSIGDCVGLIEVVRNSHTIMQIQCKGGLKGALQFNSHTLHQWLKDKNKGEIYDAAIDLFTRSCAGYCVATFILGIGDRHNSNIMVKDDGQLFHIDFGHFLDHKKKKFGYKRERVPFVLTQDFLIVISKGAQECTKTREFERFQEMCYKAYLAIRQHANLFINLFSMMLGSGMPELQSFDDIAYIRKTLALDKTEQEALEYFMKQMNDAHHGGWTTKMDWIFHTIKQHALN
- Test: Human PI3K alpha enzyme assay (HTRF)
- Assay type: biochemical
- Setup conditions: concentration not given; b1387 states 1.1 μM for PI3K α and β; read-out: p110 alpha Percent Inhibition
Label Not satisfied if inhibition at 1.1 µM falls below 60%; label Satisfied in every other case.

Solved entries:
Molecule	Study target	Category label
COc1cccc(F)c1C(O)c1cc(-c2ccncc2)sc1-c1nnc[nH]1 (centres unmarked)	Human PI3K alpha (Homo sapiens)	Not satisfied
CC(=O)Nc1cc(-c2cc(C(c3ccc(Cl)cc3)N3CCOCC3)c(-c3nnc[nH]3)s2)ccn1 (centres unmarked)	Human PI3K alpha (Homo sapiens)	Satisfied
CC(=O)Nc1cc(-c2cc(C(NC(C)C)c3ccc(Cl)cc3)c(-c3nnc[nH]3)s2)ccn1 (centres unmarked)	Human PI3K alpha (Homo sapiens)	Satisfied
Cc1ccc(C(O)c2cc(-c3ccncc3)sc2-c2nnc[nH]2)c(C)c1 (centres unmarked)	Human PI3K alpha (Homo sapiens)	Not satisfied
OC(c1ccc(F)cc1F)c1cc(-c2ccncc2)sc1-c1nnc[nH]1 (centres unmarked)	Human PI3K alpha (Homo sapiens)	Not satisfied
OC(c1ccc(-c2ncccn2)cc1)c1cc(-c2ccncc2)sc1-c1nnc[nH]1 (centres unmarked)	Human PI3K alpha (Homo sapiens)	Not satisfied

**Query** Is reported inhibition at 1.1 µM greater than or equal to 60% here: CC(=O)Nc1cc(-c2cc(C(OCC3CCCC3)c3ccc(Cl)cc3)c(-c3nnc[nH]3)s2)ccn1 (centres unmarked)
**Result** Satisfied

---

- Study target: Human PI3K beta (Homo sapiens, UniProt P42338)
- Construct: His (N); host or cells: SF9 insect cells (baculovirus)
- Sequence (P42338 whole entry): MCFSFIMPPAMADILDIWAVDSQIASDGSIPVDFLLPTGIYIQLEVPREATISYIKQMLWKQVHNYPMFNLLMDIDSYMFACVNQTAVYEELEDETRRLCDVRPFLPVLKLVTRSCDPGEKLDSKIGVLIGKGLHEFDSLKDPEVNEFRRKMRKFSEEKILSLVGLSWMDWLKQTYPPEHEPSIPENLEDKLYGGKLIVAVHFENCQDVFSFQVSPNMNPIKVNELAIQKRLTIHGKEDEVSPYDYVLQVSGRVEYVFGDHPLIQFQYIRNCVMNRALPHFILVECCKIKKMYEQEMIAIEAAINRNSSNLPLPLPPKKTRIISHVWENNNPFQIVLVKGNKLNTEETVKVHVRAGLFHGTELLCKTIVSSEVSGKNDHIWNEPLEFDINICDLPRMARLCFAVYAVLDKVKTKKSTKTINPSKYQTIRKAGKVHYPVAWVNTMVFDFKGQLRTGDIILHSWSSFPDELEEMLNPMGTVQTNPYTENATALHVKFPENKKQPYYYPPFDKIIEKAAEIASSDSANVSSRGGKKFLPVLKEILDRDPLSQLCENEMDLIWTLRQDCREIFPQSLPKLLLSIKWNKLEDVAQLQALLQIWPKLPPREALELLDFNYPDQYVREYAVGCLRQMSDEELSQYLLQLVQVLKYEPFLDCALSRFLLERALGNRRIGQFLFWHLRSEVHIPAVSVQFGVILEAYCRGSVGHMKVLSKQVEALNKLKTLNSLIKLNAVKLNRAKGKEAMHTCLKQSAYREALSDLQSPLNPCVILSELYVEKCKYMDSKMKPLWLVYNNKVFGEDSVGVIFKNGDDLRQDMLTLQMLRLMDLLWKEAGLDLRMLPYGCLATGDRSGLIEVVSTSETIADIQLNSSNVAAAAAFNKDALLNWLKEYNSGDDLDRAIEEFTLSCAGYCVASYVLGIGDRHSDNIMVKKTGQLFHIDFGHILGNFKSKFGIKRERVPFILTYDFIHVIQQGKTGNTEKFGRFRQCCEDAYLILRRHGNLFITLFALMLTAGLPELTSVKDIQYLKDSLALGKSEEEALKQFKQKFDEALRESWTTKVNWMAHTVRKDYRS
- Sequence (P27986 whole entry partner): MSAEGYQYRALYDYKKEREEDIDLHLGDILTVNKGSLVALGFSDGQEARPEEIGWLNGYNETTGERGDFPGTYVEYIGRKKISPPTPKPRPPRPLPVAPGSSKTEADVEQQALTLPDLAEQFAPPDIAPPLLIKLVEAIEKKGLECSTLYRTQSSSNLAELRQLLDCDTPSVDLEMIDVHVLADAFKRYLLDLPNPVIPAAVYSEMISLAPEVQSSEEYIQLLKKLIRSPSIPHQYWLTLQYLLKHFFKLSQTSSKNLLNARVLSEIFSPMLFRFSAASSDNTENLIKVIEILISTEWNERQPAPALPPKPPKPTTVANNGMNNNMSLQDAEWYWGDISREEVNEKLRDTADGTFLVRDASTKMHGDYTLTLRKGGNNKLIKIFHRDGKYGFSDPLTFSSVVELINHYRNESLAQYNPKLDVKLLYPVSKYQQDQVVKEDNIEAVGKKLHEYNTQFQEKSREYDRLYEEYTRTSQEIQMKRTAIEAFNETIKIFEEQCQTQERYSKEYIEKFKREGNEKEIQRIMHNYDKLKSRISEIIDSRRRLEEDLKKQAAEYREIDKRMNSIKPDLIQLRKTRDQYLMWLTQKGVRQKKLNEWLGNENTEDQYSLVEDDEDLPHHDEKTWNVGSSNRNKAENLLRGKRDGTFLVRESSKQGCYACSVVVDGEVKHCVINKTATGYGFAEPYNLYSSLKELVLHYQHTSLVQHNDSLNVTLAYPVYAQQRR
- Test: Human PI3K beta enzyme assay (HTRF)
- Assay type: biochemical
- Setup conditions: concentration not given; b1387 states 1.1 μM for PI3K α and β; read-out: p110 beta Percent Inhibition
Observable: inhibition at 1.1 µM (%)
Note: unit % is implicit; provide only the numeric part.

Compound	Observable	Assay value
C=CCC(c1ccc(Cl)c(Cl)c1)c1c(C(=O)O)sc(N2CCOCC2)c1C#N (stereo not drawn)	inhibition at 1.1 µM	100

**Query** Bench note: what inhibition at 1.1 µM did CC(=O)Nc1cc(-c2cc(C(NCC3CCNC3)c3ccc(Cl)cc3)c(-c3nnc[nH]3)s2)ccn1 (stereo not drawn) show?
**Result** 100

**Query** Bench note: what inhibition at 1.1 µM did OC(c1cc(-c2ccncc2)sc1-c1nnc[nH]1)c1c(F)ccc2ccccc12 (stereo not drawn) show?
**Result** 96

**Query** Bench note: what inhibition at 1.1 µM did COC(=O)Nc1cc(-c2cc(C(c3ccc(Cl)cc3)N3CCNCC3)c(-c3nnc[nH]3)s2)ccn1 (stereo not drawn) show?
**Result** 97

**Query** Bench note: what inhibition at 1.1 µM did CC(=O)Nc1cc(-c2cc(C(c3ccc(Cl)cc3)N3CCN(S(C)(=O)=O)CC3)c(-c3nnc[nH]3)s2)ccn1 (stereo not drawn) show?
**Result** 92

**Query** Bench note: what inhibition at 1.1 µM did O=C(O)Cc1sc(N2CCOCC2)nc1Cc1ccc(Cl)c(Cl)c1 show?
**Result** 63

**Query** Bench note: what inhibition at 1.1 µM did OC(c1ccc2ccccc2c1)c1cc(-c2ccncc2)sc1-c1nnc[nH]1 (stereo not drawn) show?
**Result** 106

**Query** Bench note: what inhibition at 1.1 µM did OC(c1ccc(F)cc1F)c1cc(-c2ccncc2)sc1-c1nnc[nH]1 (stereo not drawn) show?
**Result** 93
